- study system: FXR LBD, GST (Homo sapiens)
- Construct: FXR LBD, GST; purchased Invitrogen PV4834
- Sequence (Q96RI1 262-486 limits assumed): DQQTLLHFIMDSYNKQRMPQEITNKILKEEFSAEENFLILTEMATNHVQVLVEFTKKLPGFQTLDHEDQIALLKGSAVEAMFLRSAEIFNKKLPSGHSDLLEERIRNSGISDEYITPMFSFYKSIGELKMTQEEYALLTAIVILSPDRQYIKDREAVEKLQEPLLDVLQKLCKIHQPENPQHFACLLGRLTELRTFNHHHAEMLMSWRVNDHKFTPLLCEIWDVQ
- method summary: FXR Binding Assay (TR-FRET, Fluorescein-SRC2-2 coactivator peptide)
- run parameters: % Activity relative to positive control; read-out: Pct Effect (Emax %)
endpoint name: Emax (%)

>>> print(df.to_string())
                                    compound  observed
 0  Cn1cc(C(=O)O)c2ccc(N3CCN(CCc4c(-c5ccccc5Cl)noc4C4CC4)CC3)cc21 [Example I9]       206
 1  O=C(O)c1cc(F)c2nc(N3CC4CC(C3)C4OCc3c(-c4ccccc4OC(F)(F)F)noc3C3CC3)sc2c1 (stereo not drawn) [Example I60]      35.3
 2  Cn1cc(C(=O)O)c2c(F)cc(N3CCN(CCc4c(-c5c(Cl)cccc5Cl)noc4C4CC4)CC3)cc21 [Example I46]       168
 3  O=C(O)c1ccc(N2CCN(CCc3c(-c4c(Cl)cccc4Cl)noc3C3CC3)CC2)cc1 [Example I14]       142
 4  CN(Cc1c(-c2c(Cl)cccc2Cl)noc1C1CC1)C1CCN(c2ccc3c(C(=O)O)cn(C)c3c2)CC1 [Example I58]      83.4
 5  O=C(O)c1c[nH]c2cc(N3CCN(CCc4c(-c5c(Cl)cccc5Cl)noc4C4CC4)CC3)ccc12 [Example I15]       168
 6  Cn1cc(C(=O)O)c2ccc(N3CC4CCC(C3)N4CCc3c(-c4c(Cl)cccc4Cl)noc3C3CC3)cc21 [Example I41]       158
 7  Cn1cc(C(=O)O)c2ccc(N3CCN(CCc4c(-c5c(Cl)cccc5Cl)noc4C4CC4)CC3)cc21 [Example I1]       161
 8  Cn1cc(C(=O)O)c2ccc(C3CCN(CCc4c(-c5c(Cl)cccc5Cl)noc4C4CC4)CC3)cc21 [Example I36]       161
 9  O=C(O)c1ccc2nc(N3C4CCC3CN(CCc3c(-c5c(Cl)cccc5Cl)noc3C3CC3)C4)sc2c1 [Example I33]      43.3
10  CC1CCN(c2ccc3c(C(=O)O)cn(C)c3c2)CCN1CCc1c(-c2c(Cl)cccc2Cl)noc1C1CC1 (stereo not drawn) [Example I55]      70.9
11  Cn1cc(C(=O)O)c2ccc(N3CCN(CCc4c(-c5ccccc5C(F)(F)F)noc4C4CC4)CC3)cc21 [Example I26]       214
12  Cn1cc(C(=O)O)c2ccc(N3C4CCC3CN(CCc3c(-c5c(Cl)cccc5Cl)noc3C3CC3)C4)cc21 [Example I30]       111
13  CC1CN(CCc2c(-c3c(Cl)cccc3Cl)noc2C2CC2)CCN1c1ccc2nc(C(=O)O)ccc2c1 (stereo not drawn) [Example I51]      96.5
14  COC(=O)c1ccc2cc(N3CCN(CCc4c(-c5c(Cl)cccc5Cl)noc4C4CC4)C(C)C3)ccc2n1 (stereo not drawn) [Example I53]      68.4
15  CC1CN(CCc2c(-c3c(Cl)cccc3Cl)noc2C2CC2)CCN1c1ccc(CC(=O)O)cc1 (stereo not drawn) [Example I13]      34.9
16  Cc1cccc(Cl)c1-c1noc(C2CC2)c1CCN1CCN(c2ccc3c(C(=O)O)cn(C)c3c2)CC1 [Example I22]       163
17  C[C@H]1CN(CCc2c(-c3c(Cl)cccc3Cl)noc2C2CC2)CCN1c1ccc2c(C(=O)O)cn(C)c2c1 [Example I39]       129
